All figures here come from patent US5338733A.

Tested on: Staphylococcus aureus 209P
Test: MIC, Staphylococcus aureus 209P
Type: cell-based
Conditions: Staphylococcus aureus 209P; read-out: MIC (Minimal Inhibitory Concentration)
Entries and their MIC
Give the number; µg/mL is assumed, so skip it.

Solved cases below.
molecule=C[C@@H](O)[C@H]1C(=O)N2C(C(=O)O)=C(S[C@@H]3CN[C@H](C(=O)N(C)C)C3)[C@H](C)[C@H]12 measurement=0.1
molecule="C[C@H]1C([C@@H]2CCN(C)O2)=C(C(=O)O)N2C(=O)[C@H]([C@@H](C)O)C12 (stereo partly drawn)" measurement=0.1

Look at this molecule and give its reported MIC. C[N+]1(C)CCC(C2=C(C(=O)[O-])N3C(=O)C(NC(=O)C(=NO)c4csc(N)n4)C3SC2)O1 (stereo not drawn)
0.2

----------
Assay: in vitro
Assay type: in vitro ADME, human
Details: human, kidney dehydropeptidase-1
measurementType: metabolised (%)
Please state the figure in %; there is no need to write the unit.

Completed entries (count: 2):
compound="C[C@H]1C([C@H]2CC[N+](C)(C)O2)=C(C(=O)[O-])N2C(=O)[C@H]([C@@H](C)O)C12 (stereo partly drawn)" measurement=97
compound=C[C@@H](O)[C@H]1C(=O)N2C(C(=O)O)=C(SCCN=CN)C[C@H]12 measurement=73

Any idea what metabolised was measured for C[C@@H](O)[C@H]1C(=O)N2C(C(=O)O)=C(S[C@@H]3CN[C@H](C(=O)N(C)C)C3)[C@H](C)[C@H]12 ?
87

----------
Experiment: in vivo
Conditions: mouse, iv
measurementType: AUC (ng·h/mL)
Only the number, expressed in ng·h/mL, is required.

compound=C[C@@H](O)[C@H]1C(=O)N2C(C(=O)O)=C(S[C@@H]3CN[C@H](C(=O)N(C)C)C3)[C@H](C)[C@H]12 measurement=5200
compound=C[C@@H](O)[C@H]1C(=O)N2C(C(=O)O)=C(SCCN=CN)C[C@H]12 measurement=8800

Could you now consider this next compound?
Could you share which AUC value was measured for C[C@H]1C([C@H]2CC[N+](C)(C)O2)=C(C(=O)[O-])N2C(=O)[C@H]([C@@H](C)O)C12 (stereo partly drawn) ?
19000

----------
Assay: in vivo
Details: mouse, iv
measurementType: concentration at 0.25 h (ng/mL)
Quick note: give the figure in ng/mL, leave out the unit.

Known results for compounds:
compound="C[C@H]1C([C@H]2CC[N+](C)(C)O2)=C(C(=O)[O-])N2C(=O)[C@H]([C@@H](C)O)C12 (stereo partly drawn)" measurementunit=ng/mL measurement=36300
compound=C[C@@H](O)[C@H]1C(=O)N2C(C(=O)O)=C(SCCN=CN)C[C@H]12 measurementunit=ng/mL measurement=20600

Attention now turns to another entry.
Suppose we examine the compound C[C@@H](O)[C@H]1C(=O)N2C(C(=O)O)=C(S[C@@H]3CN[C@H](C(=O)N(C)C)C3)[C@H](C)[C@H]12 ; what concentration at 0.25 h value has been reported?
13700

----------
Tested on: Staphylococcus aureus 209P
Test: MIC, Staphylococcus aureus 209P
Format: cell-based
Details: Staphylococcus aureus 209P; read-out: MIC (Minimal Inhibitory Concentration)
measurementType: MIC (µg/mL)
Answer with a number only, understood to be in µg/mL.

Worked set:
compound="C[C@H]1C([C@@H]2CC[N+](C)(C)O2)=C(C(=O)[O-])N2C(=O)[C@H]([C@@H](C)O)C12 (stereo partly drawn)" measurementtype=MIC measurementunit=µg/mL measurement=0.0125
compound="CN1CCC(C2=C(C(=O)O)N3C(=O)C(NC(=O)C(=NO)c4csc(N)n4)C3SC2)O1 (stereo not drawn)" measurementtype=MIC measurementunit=µg/mL measurement=0.78

// returns reported MIC for input C[C@H]1C([C@H]2CC[N+](C)(C)O2)=C(C(=O)[O-])N2C(=O)[C@H]([C@@H](C)O)C12 (stereo partly drawn)
0.0125
